Origin of measurements: patent US11918645B2

- System: HLA class I alleles
- procedure.details: ProImmune REVEAL MHC class I binding assay, summary over the seven alleles
- Set-up: species or system human
- assay.setup: total number binding epitopes detected for each long peptide, seven class I alleles
// reported Number of HLA binders (a) per item

Reference set, count: 5
>  <substance>
NP753(K): unconjugated HBV long peptide, core KK + 738-770 (S to T at 743) + KKK (KKKEFGATVELLSFLPSDFFPSVRDLLDTASALYRKKK; HBV CONSENSUS SEQUENCE)

>  <result>
10

$$$$
>  <substance>
NP277(K): unconjugated HBV long peptide, polymerase 260-293 + KKK (RVSWPKFAVPNLQSLTNLLSSNLSWLSLDVSAAFYHKKK; HBV CONSENSUS SEQUENCE)

>  <result>
18

$$$$
>  <substance>
NP151: unconjugated HBV long peptide, polymerase region 134-168 (PEHVVNHYFQTRHYLHTLWKAGILYKRETTRSASF; HBV CONSENSUS SEQUENCE)

>  <result>
21

$$$$
>  <substance>
NP856(K): unconjugated HBV long peptide, core 839-873 + KKK (LTFGRETVLEYLVSFGVWIRTPPAYRPPNAPILSTKKK; HBV CONSENSUS SEQUENCE)

>  <result>
11

$$$$
>  <substance>
NP376: unconjugated HBV long peptide, polymerase 359-398 (C to S substitution at 393) (KLHLYSHPIILGFRKIPMGVGLSPFLLAQFTSAISSVVRR; HBV CONSENSUS SEQUENCE)

>  <result>
35

$$$$

Consider the additional substance presented here.
*Q* For HLA class I alleles, provide Number of HLA binders (a) of NP113: unconjugated HBV long peptide, polymerase region 96-130 of virtual HBV proteome (VGPLTVNEKRRLKLIMPARFYPNVTKYLPLDKGIK; HBV CONSENSUS SEQUENCE) please.
*A* 20

====

- subject.of.test: HLA-A*0301 (Homo sapiens, UniProt P04439)
- Construct: purchased ProImmune
- procedure.details: ProImmune REVEAL MHC class I binding assay of nonamers
- assay.setup: score as % of positive control peptide
observation.type: Number of nonamers having a binding score >= 45%, HLA-A*0301
Number only, no unit.

>  <substance>
NP277(K): unconjugated HBV long peptide, polymerase 260-293 + KKK (RVSWPKFAVPNLQSLTNLLSSNLSWLSLDVSAAFYHKKK; HBV CONSENSUS SEQUENCE)

>  <readout.number>
0

$$$$
>  <substance>
NP856(K): unconjugated HBV long peptide, core 839-873 + KKK (LTFGRETVLEYLVSFGVWIRTPPAYRPPNAPILSTKKK; HBV CONSENSUS SEQUENCE)

>  <readout.number>
0

$$$$
>  <substance>
NP376: unconjugated HBV long peptide, polymerase 359-398 (C to S substitution at 393) (KLHLYSHPIILGFRKIPMGVGLSPFLLAQFTSAISSVVRR; HBV CONSENSUS SEQUENCE)

>  <readout.number>
0

$$$$

*Q* Query: Number of nonamers having a binding score >= 45%, HLA-A*0301; subject: NP113: unconjugated HBV long peptide, polymerase region 96-130 of virtual HBV proteome (VGPLTVNEKRRLKLIMPARFYPNVTKYLPLDKGIK; HBV CONSENSUS SEQUENCE)
*A* 3

*Q* Next entry: NP753(K): unconjugated HBV long peptide, core KK + 738-770 (S to T at 743) + KKK (KKKEFGATVELLSFLPSDFFPSVRDLLDTASALYRKKK; HBV CONSENSUS SEQUENCE)
*A* 0

*Q* Next entry: NP151: unconjugated HBV long peptide, polymerase region 134-168 (PEHVVNHYFQTRHYLHTLWKAGILYKRETTRSASF; HBV CONSENSUS SEQUENCE)
*A* 4
